All figures here come from ChEMBL document CHEMBL4312011.

# Test system: HCT-116
# assay_procedure: Cytotoxicity against human HCT116 cells incubated for 72 hrs by MTS assay
# Format: functional, cell-based
# recorded_conditions: HCT-116, 72 h
reported_property: pIC50
// pIC50 is dimensionless: -log10 of concentration (M)

Input: # value lookup — system HCT-116, readout pIC50, item C=C(C)[C@@H]1CC[C@]2(C(=O)O)CC[C@]3(C)[C@H](CC[C@@H]4[C@@]5(C)CCC(=O)C(C)(C)[C@@H]5CC[C@]43C)[C@@H]12
Output: 4.42

Input: # value lookup — system HCT-116, readout pIC50, item CC1(C)CC[C@]2(C(=O)O)CC[C@]3(C)C(=CC[C@@H]4[C@@]5(C)Cc6sc(N)nc6C(C)(C)[C@@H]5CC[C@]43C)[C@@H]2C1
Output: 4.51

Input: # value lookup — system HCT-116, readout pIC50, item CCN(CC)c1nc2c(s1)C[C@]1(C)[C@H]3CC=C4[C@@H]5[C@@H](C)[C@H](C)CC[C@]5(C(=O)O)CC[C@@]4(C)[C@]3(C)CC[C@H]1C2(C)C
Output: 4.38

Input: # value lookup — system HCT-116, readout pIC50, item C[C@H]1[C@H](C)CC[C@]2(C(=O)O)CC[C@]3(C)C(=CC[C@@H]4[C@@]5(C)CC(SC#N)C(=O)C(C)(C)[C@@H]5CC[C@]43C)[C@H]12 (stereo not given in full)
Output: 4.49

====

# assay_procedure: Microsomal stability in human liver microsomes assessed as parent compound remaining at 2 uM incubated for 15 mins by RF-MS analysis
# Type: ADME, Microsome
# recorded_conditions: read-out: Stability
reported_property: remaining at 0.25 h, 2 µM (%)
Record the value in %, omitting the unit from your answer.

Input: Entry under review: CC(C)[C@@H]1CC[C@]2(C(=O)O)CC[C@]3(C)[C@H](CC[C@@H]4[C@@]5(C)CC(SC#N)C(=O)C(C)(C)[C@@H]5CC[C@]43C)[C@@H]12 (some centres undefined) . Reported remaining at 0.25 h, 2 µM?
Output: 62.9

Input: Entry under review: C=C(C)[C@@H]1CC[C@]2(C(=O)O)CC[C@]3(C)[C@H](CC[C@@H]4[C@@]5(C)CC(SC#N)C(=O)C(C)(C)[C@@H]5CC[C@]43C)[C@@H]12 (some centres undefined) . Reported remaining at 0.25 h, 2 µM?
Output: 90.1

Input: Entry under review: CC1(C)CC[C@]2(C(=O)O)CC[C@]3(C)C(=CC[C@@H]4[C@@]5(C)Cc6sc(N)nc6C(C)(C)[C@@H]5CC[C@]43C)[C@@H]2C1 . Reported remaining at 0.25 h, 2 µM?
Output: 96.8

Input: Entry under review: CC(C)[C@@H]1CC[C@]2(C(=O)O)CC[C@]3(C)[C@H](CC[C@@H]4[C@@]5(C)Cc6sc(N)nc6C(C)(C)[C@@H]5CC[C@]43C)[C@@H]12 . Reported remaining at 0.25 h, 2 µM?
Output: 97.7

====

Assign remaining at 2 h, 2 µM to each entry below.
# assay_procedure: Chemical stability of compound in PBS buffer assessed as parent compound remaining at 2 uM at pH 7.4 and 37 degC incubated for 120 mins by RF-MS analysis
# Assay type: physicochemical
# recorded_conditions: read-out: Stability
Record the value in %, omitting the unit from your answer.

Input: Entry under review: C=C(C)[C@@H]1CC[C@]2(C(=O)O)CC[C@]3(C)[C@H](CC[C@@H]4[C@@]5(C)CC(SC#N)C(=O)C(C)(C)[C@@H]5CC[C@]43C)[C@@H]12 (some centres not stated) . Reported remaining at 2 h, 2 µM?
Output: 69.8

Input: Entry under review: CC(C)[C@@H]1CC[C@]2(C(=O)O)CC[C@]3(C)[C@H](CC[C@@H]4[C@@]5(C)Cc6sc(N)nc6C(C)(C)[C@@H]5CC[C@]43C)[C@@H]12 . Reported remaining at 2 h, 2 µM?
Output: 76.3

Input: Entry under review: CC1(C)CC[C@]2(C(=O)O)CC[C@]3(C)C(=CC[C@@H]4[C@@]5(C)Cc6sc(N)nc6C(C)(C)[C@@H]5CC[C@]43C)[C@@H]2C1 . Reported remaining at 2 h, 2 µM?
Output: 74.9

Input: Entry under review: C[C@H]1[C@H](C)CC[C@]2(C(=O)O)CC[C@]3(C)C(=CC[C@@H]4[C@@]5(C)CC(Br)C(=O)C(C)(C)[C@@H]5CC[C@]43C)[C@H]12 (some centres not stated) . Reported remaining at 2 h, 2 µM?
Output: 88.5

Input: Entry under review: C[C@H]1[C@H](C)CC[C@]2(C(=O)O)CC[C@]3(C)C(=CC[C@@H]4[C@@]5(C)CC(SC#N)C(=O)C(C)(C)[C@@H]5CC[C@]43C)[C@H]12 (some centres not stated) . Reported remaining at 2 h, 2 µM?
Output: 15.3

Input: Entry under review: CC(C)[C@@H]1CC[C@]2(C(=O)O)CC[C@]3(C)[C@H](CC[C@@H]4[C@@]5(C)CC(SC#N)C(=O)C(C)(C)[C@@H]5CC[C@]43C)[C@@H]12 (some centres not stated) . Reported remaining at 2 h, 2 µM?
Output: 69.8

Input: Entry under review: C=C(C)[C@@H]1CC[C@]2(C(=O)O)CC[C@]3(C)[C@H](CC[C@@H]4[C@@]5(C)Cc6sc(N)nc6C(C)(C)[C@@H]5CC[C@]43C)[C@@H]12 . Reported remaining at 2 h, 2 µM?
Output: 86.9

====

# assay_procedure: Stability in human plasma assessed as parent compound remaining at 2 uM incubated for 60 mins by RF-MS analysis
# Type: ADME, cell-free
# recorded_conditions: read-out: Stability
Assign remaining at 1 h, 2 µM to each entry below.
Record the value in %, omitting the unit from your answer.

Input: Entry under review: C=C(C)[C@@H]1CC[C@]2(C(=O)O)CC[C@]3(C)[C@H](CC[C@@H]4[C@@]5(C)Cc6sc(N)nc6C(C)(C)[C@@H]5CC[C@]43C)[C@@H]12 . Reported remaining at 1 h, 2 µM?
Output: 97.7

Input: Entry under review: C[C@H]1[C@H](C)CC[C@]2(C(=O)O)CC[C@]3(C)C(=CC[C@@H]4[C@@]5(C)CC(SC#N)C(=O)C(C)(C)[C@@H]5CC[C@]43C)[C@H]12 (some centres not stated) . Reported remaining at 1 h, 2 µM?
Output: 77.4

Input: Entry under review: C=C(C)[C@@H]1CC[C@]2(C(=O)O)CC[C@]3(C)[C@H](CC[C@@H]4[C@@]5(C)CC(SC#N)C(=O)C(C)(C)[C@@H]5CC[C@]43C)[C@@H]12 (some centres not stated) . Reported remaining at 1 h, 2 µM?
Output: 35.7

Input: Entry under review: CC(C)[C@@H]1CC[C@]2(C(=O)O)CC[C@]3(C)[C@H](CC[C@@H]4[C@@]5(C)CC(SC#N)C(=O)C(C)(C)[C@@H]5CC[C@]43C)[C@@H]12 (some centres not stated) . Reported remaining at 1 h, 2 µM?
Output: 56.8

Input: Entry under review: CC1(C)CC[C@]2(C(=O)O)CC[C@]3(C)C(=CC[C@@H]4[C@@]5(C)Cc6sc(N)nc6C(C)(C)[C@@H]5CC[C@]43C)[C@@H]2C1 . Reported remaining at 1 h, 2 µM?
Output: 99.4

Input: Entry under review: CC(C)[C@@H]1CC[C@]2(C(=O)O)CC[C@]3(C)[C@H](CC[C@@H]4[C@@]5(C)Cc6sc(N)nc6C(C)(C)[C@@H]5CC[C@]43C)[C@@H]12 . Reported remaining at 1 h, 2 µM?
Output: 99.9

Input: Entry under review: C[C@H]1[C@H](C)CC[C@]2(C(=O)O)CC[C@]3(C)C(=CC[C@@H]4[C@@]5(C)CC(Br)C(=O)C(C)(C)[C@@H]5CC[C@]43C)[C@H]12 (some centres not stated) . Reported remaining at 1 h, 2 µM?
Output: 94.9

====

# assay_procedure: Microsomal stability in human liver microsomes assessed as parent compound remaining at 2 uM incubated for 60 mins by RF-MS analysis
# Type: ADME, Microsome
# recorded_conditions: read-out: Stability
reported_property: remaining at 1 h, 2 µM
Hi, when you answer, please include the unit after the number. Thanks!

Input: Entry under review: CC(C)[C@@H]1CC[C@]2(C(=O)O)CC[C@]3(C)[C@H](CC[C@@H]4[C@@]5(C)CC(SC#N)C(=O)C(C)(C)[C@@H]5CC[C@]43C)[C@@H]12 (some centres not stated) . Reported remaining at 1 h, 2 µM?
Output: 1.6%

Input: Entry under review: C[C@H]1[C@H](C)CC[C@]2(C(=O)O)CC[C@]3(C)C(=CC[C@@H]4[C@@]5(C)CC(SC#N)C(=O)C(C)(C)[C@@H]5CC[C@]43C)[C@H]12 (some centres not stated) . Reported remaining at 1 h, 2 µM?
Output: 14.9%

Input: Entry under review: CC(C)[C@@H]1CC[C@]2(C(=O)O)CC[C@]3(C)[C@H](CC[C@@H]4[C@@]5(C)Cc6sc(N)nc6C(C)(C)[C@@H]5CC[C@]43C)[C@@H]12 . Reported remaining at 1 h, 2 µM?
Output: 90.8%

Input: Entry under review: C=C(C)[C@@H]1CC[C@]2(C(=O)O)CC[C@]3(C)[C@H](CC[C@@H]4[C@@]5(C)CC(SC#N)C(=O)C(C)(C)[C@@H]5CC[C@]43C)[C@@H]12 (some centres not stated) . Reported remaining at 1 h, 2 µM?
Output: 56.8%

Input: Entry under review: C=C(C)[C@@H]1CC[C@]2(C(=O)O)CC[C@]3(C)[C@H](CC[C@@H]4[C@@]5(C)Cc6sc(N)nc6C(C)(C)[C@@H]5CC[C@]43C)[C@@H]12 . Reported remaining at 1 h, 2 µM?
Output: 25.8%

Input: Entry under review: CC1(C)CC[C@]2(C(=O)O)CC[C@]3(C)C(=CC[C@@H]4[C@@]5(C)Cc6sc(N)nc6C(C)(C)[C@@H]5CC[C@]43C)[C@@H]2C1 . Reported remaining at 1 h, 2 µM?
Output: 87.1%

Input: Entry under review: C[C@H]1[C@H](C)CC[C@]2(C(=O)O)CC[C@]3(C)C(=CC[C@@H]4[C@@]5(C)CC(Br)C(=O)C(C)(C)[C@@H]5CC[C@]43C)[C@H]12 (some centres not stated) . Reported remaining at 1 h, 2 µM?
Output: 66.2%
